# Assay name: Inhibitory activity against varicella zoster virus thymidine kinase (VZV TK+) YS strain
Please note: EC50 exactly at 20 µM is 0.0. Only values below 20 µM get 1.0.

{"Cpd smiles": "CC(C)OP(=O)(COCCn1cnc2c(N)ncnc21)OC(C)C", "Assigned class": 0.0}
{"Cpd smiles": "Nc1nc(=O)ccn1CCOCP(=O)(O)O", "Assigned class": 0.0}
{"Cpd smiles": "Nc1nc(Cl)nc2c1ncn2CCOCP(=O)(O)O", "Assigned class": 0.0}
{"Cpd smiles": "CCOP(=O)(O)COCCn1cnc2c(N)nc(N)nc21", "Assigned class": 1.0}
{"Cpd smiles": "Nc1nc(Cl)c2ncn(CCOCP(=O)(O)O)c2n1", "Assigned class": 1.0}
{"Cpd smiles": "CC(C)OP(=O)(COCCn1cnc2nc(N)nc(O)c21)OC(C)C", "Assigned class": 0.0}
{"Cpd smiles": "Nc1nc(=O)n(CCOCP(=O)(O)O)cc1Br", "Assigned class": 1.0}
{"Cpd smiles": "CCOP(=O)(O)COCCn1cnc2c(O)nc(N)nc21", "Assigned class": 1.0}
{"Cpd smiles": "CC(C)OP(=O)(O)COCCn1cnc2c(N)ncnc21", "Assigned class": 0.0}

----------
Parameter: pEC50. Scope: all listed entries.
# Assay name: Inhibitory activity against herpes simplex virus type 1 (HSV-1) thymidine kinase (TK) VMW 1837 strain
pEC50: −log10 of the molar value.
Assay endpoint: pEC50

{"Compound": "NC1=NC2N=CC=NC2C(=O)N1CCOCP(=O)(O)O (centres undefined)", "Relation": "=", "Readout value": 3.64}
{"Compound": "CC(C)CCCCCOP(=O)(COCCn1cnc2c(O)nc(N)nc21)OCCCCCC(C)C", "Relation": "<", "Readout value": 3.81}
{"Compound": "Nc1cc(N)c2ncn(CCOCP(=O)(O)O)c2n1", "Relation": "=", "Readout value": 3.61}
{"Compound": "CC(C)CCCCCOP(=O)(COCCn1cnc2c(N)nc(N)nc21)OCCCCCC(C)C", "Relation": "<", "Readout value": 4.51}
{"Compound": "Nc1nc(F)nc2c1ncn2CCOCP(=O)(O)O", "Relation": "=", "Readout value": 3.62}
{"Compound": "Nc1cc2c(ncn2CCOCP(=O)(O)O)c(N)n1", "Relation": "=", "Readout value": 3.61}
{"Compound": "Cc1nc(N)nc2c1ncn2CCOCP(=O)(O)O", "Relation": "=", "Readout value": 3.16}
{"Compound": "CCOP(=O)(O)COCCn1cnc2c(N)nc(N)nc21", "Relation": "=", "Readout value": 3.32}
{"Compound": "CC(C)OP(=O)(COCCn1cnc2c(S)ncnc21)OC(C)C", "Relation": "<", "Readout value": 2.97}
{"Compound": "Nc1nccc(OCCOCP(=O)(O)O)n1", "Relation": "<", "Readout value": 3.10}
{"Compound": "CC(C)CCCCCOP(=O)(COCCn1cnc2nc(N)nc(Cl)c21)OCCCCCC(C)C", "Relation": "<", "Readout value": 4.52}
{"Compound": "CC(C)OP(=O)(O)COCCn1cnc2c(N)nc(N)nc21", "Relation": "<", "Readout value": 2.92}
{"Compound": "Nc1nc(S)c2c(ncn2CCOCP(=O)(O)O)n1", "Relation": "=", "Readout value": 4.18}
{"Compound": "CCOP(=O)(O)COCCn1cnc2c(O)nc(N)nc21", "Relation": "=", "Readout value": 5.20}
{"Compound": "Nc1nc(O)nc2c1ncn2CCOCP(=O)(O)O", "Relation": "<", "Readout value": 2.86}
{"Compound": "CCOP(=O)(O)COCCn1cnc2c(N)ncnc21", "Relation": "=", "Readout value": 3.30}
{"Compound": "CC(C)OP(=O)(COCCn1cnc2c(N)ncnc21)OC(C)C", "Relation": "<", "Readout value": 2.95}
{"Compound": "CC(C)CCCCCOP(=O)(COCCn1cnc2c(N)ncnc21)OCCCCCC(C)C", "Relation": "<", "Readout value": 5.19}
{"Compound": "Nc1nc(O)c2nc(Br)n(CCOCP(=O)(O)O)c2n1", "Relation": "=", "Readout value": 3.89}
